system: BREC monolayer; assay: TNF/VEGF permeability assay; format: cell-based, bovine; settings: 30 min pretreatment; TNFα 1 hour then VEGF 30 min; read-out: EC50 for inhibition of TNF/VEGF-induced endothelial permeability
experimental.readout: EC50 (nM)
Provide only the numeric value, understood in nM.

Prompt line: Find the recorded EC50 belonging to "CCOC(=O)c1c(-c2ccc3c(c2)OCO3)csc1N" and report it.
Response line: 20

* * *

target: PKCβ (Homo sapiens (Human))
Sequence (P05771 whole entry): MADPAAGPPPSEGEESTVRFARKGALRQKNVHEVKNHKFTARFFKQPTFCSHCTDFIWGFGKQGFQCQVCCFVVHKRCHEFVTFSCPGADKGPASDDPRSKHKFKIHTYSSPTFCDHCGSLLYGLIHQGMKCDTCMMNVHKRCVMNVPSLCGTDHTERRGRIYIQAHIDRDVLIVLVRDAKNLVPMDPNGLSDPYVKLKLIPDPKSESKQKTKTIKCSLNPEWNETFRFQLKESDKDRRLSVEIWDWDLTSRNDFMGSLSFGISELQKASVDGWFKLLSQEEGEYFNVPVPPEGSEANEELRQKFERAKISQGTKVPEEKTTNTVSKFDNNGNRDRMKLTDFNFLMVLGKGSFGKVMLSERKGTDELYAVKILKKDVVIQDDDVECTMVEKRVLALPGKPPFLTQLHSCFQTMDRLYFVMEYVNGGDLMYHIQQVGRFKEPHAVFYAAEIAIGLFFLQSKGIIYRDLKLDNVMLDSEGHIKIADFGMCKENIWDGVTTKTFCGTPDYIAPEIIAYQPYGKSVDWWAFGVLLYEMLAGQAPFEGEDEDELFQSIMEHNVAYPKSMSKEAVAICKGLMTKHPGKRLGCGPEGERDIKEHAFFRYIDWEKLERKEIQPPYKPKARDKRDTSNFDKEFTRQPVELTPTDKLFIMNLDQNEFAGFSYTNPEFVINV
experimental.readout: IC50
The reply must contain the numeric value and, after it, the unit.

Prompt line: I'd like to know its IC50. The compound in question is "COc1ccc(-c2csc(N)c2C(=O)OC(C)C)cc1OC"
Response line: 124 µM

Attribution: patent US8889672B2
